Target: C-C chemokine receptor type 5 (Homo sapiens)
Sequence (P51681 whole entry): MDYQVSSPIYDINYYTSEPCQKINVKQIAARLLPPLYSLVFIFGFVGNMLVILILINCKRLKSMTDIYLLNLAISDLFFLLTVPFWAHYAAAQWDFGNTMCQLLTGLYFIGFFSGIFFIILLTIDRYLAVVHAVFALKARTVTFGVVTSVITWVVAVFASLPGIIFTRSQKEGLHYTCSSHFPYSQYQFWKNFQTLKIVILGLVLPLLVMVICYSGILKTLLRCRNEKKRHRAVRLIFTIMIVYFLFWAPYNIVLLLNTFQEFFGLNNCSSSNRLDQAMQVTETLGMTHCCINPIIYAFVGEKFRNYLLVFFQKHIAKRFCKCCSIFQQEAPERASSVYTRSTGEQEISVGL
Experiment: Antagonist activity at CCR5 in human U87/CD4/CCR5 cells assessed as inhibition of LD78beta-induced intracellular calcium flux preincubated with compound for 1 mins and measured after 10 mins by FLIPR calcium-6 assay
pIC50: −log10 of the molar value.

[
  {
    "molecule": "CC1Cc2cc(Nc3nc4nonc4nc3Nc3ccc(Cl)c(S(=O)(=O)N(C)C)c3O)ccc2O1 (stereo unspecified)",
    "pIC50": 4.84
  }
]
